system: pigweed; assay: Test B pre/postemergence pigweed; type: in vivo, Amaranthus retroflexus; conditions: Postemergence, Rate 125 g/ha; scale 0 to 10, 0 is no effect, 10 is complete control
Consider the following molecules and their measured Redroot pigweed plant response rating readings.

// field: Redroot pigweed plant response rating; key: `CC(=O)OCCCCn1c(=O)on(C(=O)N(c2ccc(F)cc2F)C(C)C)c1=O` ; value = 0

Data point: `CC(=O)OCCCCn1c(=O)on(C(=O)N(c2ccc(Cl)cc2)C(C)C)c1=O` ; Redroot pigweed plant response rating = 0

Sure, the documented Redroot pigweed plant response rating for `CC(C)N(C(=O)n1oc(=O)n(CCC2OCCCO2)c1=O)c1ccc(Cl)cc1` is 0

GET /value?item= `CCC(=O)Cn1c(=O)on(C(=O)N(c2ccc(F)cc2F)C(C)C)c1=O` &field=Redroot pigweed plant response rating returns 0

Just so you know, measured Redroot pigweed plant response rating for `CC(C)N(C(=O)n1oc(=O)n(CCCF)c1=O)c1ccc(F)cc1F` came out at 9
